# Measurement protocol: isobaric coefficient of expansion
# Cond: 308.15 K; 25000 kPa; Liquid; DSC with Pressure Shift
Experimental endpoint: isobaric coefficient of expansion

Reference set, count: 2
CCCO :: 0.0009 1/K
CCCCCCCO :: 0.000776 1/K

--- query ---
Ask: State its isobaric coefficient of expansion for this compound: CCCCCO
Result: 0.000816 1/K

* * *

# isobaric coefficient of expansion listing for each entry below
# Measurement protocol: isobaric coefficient of expansion
# Cond: 348.15 K; 5000 kPa; Liquid; DSC with Pressure Shift

CCCCCO :: 0.00105 1/K

Ask: Retrieve isobaric coefficient of expansion measured for CCCCCCO and print it.
Result: 0.000995 1/K

Ask: Give isobaric coefficient of expansion for CCCCCCCCCCO
Result: 0.000895 1/K

Ask: Specify measured isobaric coefficient of expansion for CCCCCN .
Result: 0.00123 1/K

Ask: Please indicate isobaric coefficient of expansion recorded for CCC(O)CC
Result: 0.0012 1/K

Ask: // fetch isobaric coefficient of expansion given entry CCCCCCCCCO
Result: 0.000912 1/K

Ask: Note isobaric coefficient of expansion for the molecule shown: CCO
Result: 0.00127 1/K

Ask: Name the recorded isobaric coefficient of expansion of the molecule listed here: CCCC(C)O (stereo unspecified)
Result: 0.00119 1/K

Ask: Find the measured isobaric coefficient of expansion of CCCO and report it.
Result: 0.00116 1/K

Ask: Recall and state the measured isobaric coefficient of expansion for CCCCCCCCO .
Result: 0.000928 1/K

Ask: Give isobaric coefficient of expansion for CCCCCCCO
Result: 0.000956 1/K

* * *

# Measurement protocol: isobaric coefficient of expansion
# Cond: 328.15 K; 25000 kPa; Liquid; DSC with Pressure Shift
Below, each entry is listed alongside its reported isobaric coefficient of expansion.

Recorded results for 3 molecules are shown here.
CCCCCCO :: 0.000833 1/K
CCCCCCCCO :: 0.000787 1/K
CCC(O)CC :: 0.00101 1/K

Continue with the next molecule.
Ask: Supply isobaric coefficient of expansion value. Item: CCCO
Result: 0.00095 1/K

* * *

Below: a set of entries, each annotated with reported isobaric coefficient of expansion.
# Measurement protocol: isobaric coefficient of expansion
# Cond: 278.15 K; 25000 kPa; Liquid; DSC with Pressure Shift

CCO [ethanol] :: 0.000928 1/K

Ask: Fill in isobaric coefficient of expansion for record CCCC(C)O (stereo not given) [pentan-2-ol]
Result: 0.000801 1/K

Ask: Please give measured isobaric coefficient of expansion of the following entry: CCCCCN [1-pentanamine]
Result: 0.00101 1/K

Ask: Could you please provide reported isobaric coefficient of expansion for CCC(O)CC [3-pentanol] ? Thanks!
Result: 0.000826 1/K

Ask: Please give the documented isobaric coefficient of expansion of CCCCCCCCO [octan-1-ol]
Result: 0.000742 1/K

Ask: Consider the compound CCCO [propan-1-ol] . State its measured isobaric coefficient of expansion.
Result: 0.00085 1/K

Ask: Provide isobaric coefficient of expansion value for the following compound: CCCCCO [pentan-1-ol]
Result: 0.000788 1/K

Ask: Indicate the recorded isobaric coefficient of expansion value for this compound: CCCCCCCCCO [nonan-1-ol]
Result: 0.000741 1/K

Ask: Look up and report measured isobaric coefficient of expansion for this entry: CCCCCCO [hexan-1-ol]
Result: 0.00076 1/K

Ask: Specify reported isobaric coefficient of expansion for the compound shown: CCCCCCCO [heptan-1-ol]
Result: 0.000741 1/K
